Test: Hemolytic activity in mouse erythrocytes at 128 ug/ml incubated for 1 hr by absorbance based assay
Type: toxicity, cell-based, Erythrocyte
Experimental parameters: dose 128 µg/ml, read-out: Activity
Parameter measured: hemolysis at 1 h, 128 ug/ml (%)
Could you give me the number in %? Just the number is fine.

The reported hemolysis at 1 h, 128 ug/ml of the compound `Cc1ccccc1-c1c[n+](C)c(-c2ccc(C(C)(C)C)cc2)cc1/C=C/c1ccc(O)cc1.[I-]` was 7.59

----------
Measured MIC values are reported for all entries that follow.
Test system: Staphylococcus aureus
Test: Antibacterial activity against Staphylococcus aureus clinical isolate assessed as bacterial growth inhibition incubated for 20 hrs by CLSI based broth microdilution method
Type: functional
Could you give me the number in µg/mL? Just the number is fine.

Input smiles | Units label | MIC
CC(C)c1ccc(/C=C/c2cc(-c3ccc4ccccc4c3)[n+](C)cc2-c2ccccc2)cc1.[I-] | µg/mL | 0.5

The reported MIC of the compound `COc1ccc2cc3[n+](cc2c1OC)CCc1cc2c(cc1-3)OCO2` was 64

The reported MIC of the compound `C[n+]1cc2c3c(ccc2c2ccc4cc5c(cc4c21)OCO5)OCO3` was 8

The reported MIC of the compound `C[n+]1cc(-c2ccccc2)cc(/C=C/c2ccccc2[N+](=O)[O-])c1-c1ccccc1.I` was 32

The reported MIC of the compound `C[n+]1cc(-c2ccccc2)cc(/C=C/c2ccc(Cl)c(Cl)c2)c1-c1ccccc1.[I-]` was 2

The reported MIC of the compound `CC(=O)Nc1ccc(/C=C/c2cc(-c3ccc4ccccc4c3)[n+](C)cc2-c2ccccc2)cc1.[I-]` was 1

The reported MIC of the compound `CCCCCCOc1ccc(/C=C/c2cc(-c3ccccc3)c[n+](C)c2-c2ccccc2)cc1.[I-]` was 1

The reported MIC of the compound `CC1(C)S[C@@H]2[C@H](NC(=O)[C@H](NC(=O)N3CCN(S(C)(=O)=O)C3=O)c3ccccc3)C(=O)N2[C@H]1C(=O)O` was 32

The reported MIC of the compound `C[n+]1cc(-c2ccccc2)cc(/C=C/c2ccc(Cl)cc2)c1-c1ccccc1.[I-]` was 2

The reported MIC of the compound `COc1ccc(/C=C/c2cc(-c3ccccc3)c[n+](C)c2-c2ccccc2)cc1.[I-]` was 4

The reported MIC of the compound `CC(C)c1ccc(/C=C/c2cc(-c3ccc(C(C)(C)C)cc3)[n+](C)cc2-c2ccccc2)cc1.[I-]` was 0.5

The reported MIC of the compound `C=CC1=C(C(=O)O)N2C(=O)[C@@H](NC(=O)/C(=N\OCC(=O)O)c3csc(N)n3)[C@H]2SC1` was 8

The reported MIC of the compound `C[n+]1cc(-c2ccccc2)c(/C=C/c2ccc(F)cc2)cc1-c1ccccc1.[I-]` was 1

The reported MIC of the compound `C[n+]1cc(-c2ccccc2)c(/C=C/c2ccc(F)cc2)cc1-c1ccc(C(C)(C)C)cc1.[I-]` was 1

The reported MIC of the compound `Cc1ccc(/C=C/c2cc(-c3ccccc3)c[n+](C)c2-c2ccccc2)cc1.[I-]` was 2

----------
Test system: Enterococcus faecium
Test: Antibacterial activity against vancomycin-resistant Enterococcus faecium ATCC51559 assessed as bacterial growth inhibition incubated for 20 hrs by CLSI based broth microdilution method
Format: functional
Parameter measured: log10 of MIC (log10 of the value in µg/mL)
Units before log transform: µg/mL; reported quantity: MIC; transform: log10.

Consider the worked cases shown below.
Input smiles | log10 of MIC
CCc1ccc(/C=C/c2cc(-c3ccc(C(C)(C)C)cc3)[n+](C)cc2-c2ccccc2C)cc1.[I-] | -0.30
CC(=O)NC[C@H]1CN(c2ccc(N3CCOCC3)c(F)c2)C(=O)O1 | 0.60
C[n+]1cc(-c2ccccc2)cc(/C=C/c2ccc(C(F)(F)F)cc2)c1-c1ccccc1.[I-] | 0.90
Cc1ccc(/C=C/c2cc(-c3ccccc3)c[n+](C)c2-c2ccccc2)cc1.[I-] | 1.20
CCCOc1ccc(/C=C/c2cc(-c3ccc(C(C)(C)C)cc3)[n+](C)cc2-c2ccccc2)cc1.[I-] | 0.00
CCCCCCCOc1ccc(/C=C/c2cc(-c3ccccc3)c[n+](C)c2-c2ccccc2)cc1.[I-] | 1.81

The reported log10 of MIC of the molecule `C[n+]1cc(-c2ccccc2)c(/C=C/c2ccc(C(C)(C)C)cc2)cc1-c1ccc(C(C)(C)C)cc1.[I-]` was -0.30

The reported log10 of MIC of the molecule `C[n+]1cc(-c2ccccc2)c(/C=C/c2ccc(O)cc2)cc1-c1ccccc1.[I-]` was 1.81

The reported log10 of MIC of the molecule `Cc1ccc(/C=C/c2cc(-c3ccc(C(C)(C)C)cc3)[n+](C)cc2-c2ccccc2C)cc1.[I-]` was 0.30

The reported log10 of MIC of the molecule `CCOc1ccc(/C=C/c2cc(-c3ccccc3)c[n+](C)c2-c2ccccc2)cc1.[I-]` was 1.20

The reported log10 of MIC of the molecule `CCc1ccc(/C=C/c2cc(-c3ccccc3)c[n+](C)c2-c2ccccc2)cc1.[I-]` was 1.20

The reported log10 of MIC of the molecule `C[n+]1cc(-c2ccccc2)cc(/C=C/c2ccc(Br)cc2)c1-c1ccccc1.[I-]` was 1.20

The reported log10 of MIC of the molecule `C[n+]1cc(-c2ccccc2)c(/C=C/c2ccc(N3CCCC3)cc2)cc1-c1ccc2ccccc2c1.[I-]` was 0.30

The reported log10 of MIC of the molecule `CC(C)c1ccc(/C=C/c2cc(-c3ccccc3)c[n+](C)c2-c2ccccc2)cc1.[I-]` was 0.60

The reported log10 of MIC of the molecule `C[n+]1cc(-c2ccccc2)c(/C=C/c2ccc(N3CCCCC3)cc2)cc1-c1ccc(C(C)(C)C)cc1.[I-]` was 0.00

The reported log10 of MIC of the molecule `C[n+]1cc(-c2ccccc2)c(/C=C/c2ccc(Cl)c(Cl)c2)cc1-c1ccc(C(C)(C)C)cc1.[I-]` was 0.00

Origin of values: ChEMBL document CHEMBL5537115
